Assign half-life at 1 μM to each entry below.
measurementProtocol: Metabolic stability in human liver microsomes (Human MST)
Format: in vitro ADME
conditionParameters: pooled human liver microsomes, pH 7.6; human liver microsomes 1 mg/mL, 1 μM compound, NADPH 1 mM, 37° C.; read-out: Human MST t1/2

The following molecules have reported results that may help.
molecule: Cc1nnn(-c2ccc(C(F)F)cc2)c1COc1ccc(-c2cnc(OCC(C)(C)O)nc2)nn1
half-life at 1 μM: > 2.17 h
--
molecule: Cc1nnn(-c2ccc(C(F)F)cc2)c1COc1ccc(-n2ccc(C(F)(F)F)n2)nn1
half-life at 1 μM: 0.517 h

Please look at the items below and tell me half-life at 1 μM for each one, in order.
1. Cc1nnn(-c2ccc(C(F)F)cc2)c1COc1ccc(-n2cnc(C(N)=O)c2)nn1
2. Cc1nnn(-c2ccc(C(F)F)cc2)c1COc1ccc(-n2cc(C#N)cn2)nn1
3. Cc1ncn(-c2ccc(OCc3c(C)nnn3-c3ccc(C(F)F)cc3)nn2)n1
4. Cc1nnn(-c2ccc(C(F)F)cc2)c1COc1ccc(-n2cnc(S(C)(=O)=O)c2)nn1
5. Cc1n[nH]c(C)c1-c1ccc(OCc2c(C)nnn2-c2ccc(C(F)F)cc2)nn1
6. Cc1nnn(-c2ccc(C(F)F)cc2)c1COc1ccc(-n2cnc(C(C)O)c2)nn1 (stereo not shown)
7. Cc1nnn(-c2ccc(C(F)F)cc2)c1COc1ccc(-n2cnc(C(=O)N(C)C)c2)nn1

A:
> 2.17 h
> 2.17 h
> 2.17 h
> 2.17 h
0.417 h
> 2.17 h
> 2.17 h

Please look at the items below and tell me half-life at 1 μM for each one, in order.
1. Cc1nnn(-c2ccc(C(F)F)cc2)c1COc1ccc(-c2ccnc(O)c2)nn1
2. Cc1nnn(-c2ccc(C(F)F)cc2)c1COc1ccc(-c2cncnc2)nn1
3. Cc1nnn(-c2ccc(C(F)F)cc2)c1COc1ccc(-c2ccn[nH]2)nn1
4. Cc1nnn(-c2ccc(C(F)F)cc2)c1COc1ccc(-c2cncc(-n3ccnc3)c2)nn1
5. Cc1nnn(-c2ccc(C(F)F)cc2)c1COc1ccc(-n2cnc(Cl)c2)nn1
6. Cc1nnn(-c2ccc(C(F)F)cc2)c1COc1ccc(-n2cncn2)nn1
7. Cc1nnn(-c2ccc(C(F)F)cc2)c1COc1ccc(-n2ccc(C(N)=O)n2)nn1

A:
1: > 2.17 h; 2: > 2.17 h; 3: > 2.17 h; 4: 1.22 h; 5: > 2.17 h; 6: > 2.17 h; 7: 0.617 h
